Source: PubChem BioAssay

- ASSAY_METHOD_TEXT: endothelial E-selectin expression blockers – imaging, HUVEC, immunofluorescence, MLSMR starter and 10KST1 sets, primary screen (AID 487);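 note: signal is fraction of cell area covered by stained E-selectin grains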
- CONDITIONS_USED: HUVEC TNFalpha-induced E-selectin immunofluorescence imaging, at 2 µM; hits give high values
Hi there, I'd appreciate the recorded inhibition for every entry that follows.
Please state the figure in %; there is no need to write the unit.

Please look up its inhibition: COc1ccccc1CN1C(=O)CCC1(C)C(=O)NC1CCCCCC1 (configuration not stated) -184

Please look up its inhibition: Cn1nc(C(=O)Nc2cccc(C(F)(F)F)c2)ccc1=O -46.7

Please look up its inhibition: CCn1cc(C(=O)NCCCOC)c(=O)c2cc(S(=O)(=O)N(C)C)ccc21 -42.6

Please look up its inhibition: O=C(Nc1cccc(OCC(=O)N2CCOCC2)c1)C1CCCCC1 -22.9

Please look up its inhibition: CCC(C(=O)Nc1ncccn1)(C(F)(F)F)C(F)(F)F -2.6

Please look up its inhibition: O=C(c1cccs1)N(Cc1ccco1)Cc1cc2ccccc2[nH]c1=O -40

Please look up its inhibition: CCOC(=O)c1sc(NS(=O)(=O)c2ccc(NC(C)=O)cc2)nc1C 1
